- Tested on: SW-620
- assay_details: NCI tumour cell line growth inhibition, 48 h
Calls of active or inactive are those of the source. Rule as the data show it: active = GI50 up to about 1.1 µM and inactive = higher.
Labels: 1.0 = active, 0.0 = inactive

compound	assigned_label
O=C(O)c1cscc1Cc1cccs1	0.0
Cc1ccc(/N=N/c2c(O)c(C(=O)O)cc3ccccc23)c(S(=O)(=O)O)c1	0.0
Cn1ncc(NCCn2cnc3c2c(=O)n(C)c(=O)n3C)c(Cl)c1=O	0.0
C/C(=N\c1cc(Cl)cc(Cl)c1)c1ccncc1	0.0
COc1cc2c(c(OC)c1OC)-c1ccc(SC)c(=O)cc1[C@@H](NC(=O)c1ccc(C#N)cc1)CC2	1.0
CCOC(=O)[C@@H]1ON2O[C@@H](OC3CCCCC3c3ccccc3)C[C@H]3OC(=O)[C@@H]1C32 (stereo partly drawn)	0.0
Cc1ccc(NC(=O)SCCC(=O)O)cc1NC(=O)SCCC(=O)O	0.0
CCN(CC)CCC(=O)NC1c2ccc(Cl)cc2Oc2c(C)cccc21 (stereo not drawn)	0.0
CCOC(=O)c1nc2cc(N3CCOCC3)c(F)cc2[nH]c1=O	0.0
N=C(N)N/N=C(/CCN1CCCC1)CC(c1ccccc1)c1c(O)c2ccccc2oc1=O (stereo not drawn)	0.0
CC(C)(Br)C(=O)/C=C/c1ccccc1	0.0
CC(=O)OCC1(CNc2nc(N)ncc2C#N)CC(CCc2ccccc2)C1 (stereo not drawn)	0.0
CC1(C(=O)O)CCOc2ccccc21 (stereo not drawn)	0.0
COC(=O)C1=C(C(=O)OC)SC2(S1)C(C(=O)OC)=C(C(=O)OC)Sc1c2ss/c1=N\c1ccc(Cl)cc1	1.0
Cc1oc2nc(N(C)C)nc(Cl)c2c1C	0.0
COc1cc(OC)cc(-c2cc(=O)c3c(OC)c(OC)c(OC)c(OC)c3o2)c1	0.0
CC1OC(OC2C(O[C@@H]3C[C@@H]4CC[C@@H]5[C@H](CC[C@]6(C)[C@@H]7[C@H](C[C@@H]56)O[C@]5(CC[C@@H](C)CO5)[C@H]7C)[C@@]4(C)C[C@H]3O)OC(CO)C(OC3OC(CO)C(O)C(O)C3O)C2O)C(O)C(O)C1O (stereo partly drawn)	0.0
COc1ccc(Cc2nc3cc(Cl)ccc3o2)cc1	0.0
